System: HeLa
Test: cells
Assay type: functional, cell-based
Details: Homo sapiens, 120 h
Endpoint Label: IC50 (nM)

Examples with their reported IC50 follow.
Molecule: c1nc2c(NC3CCCCC3)nc(Nc3ccc(N4CCOCC4)cc3)nc2[nH]1
Test Target: HeLa
Reading: 290
//
Molecule: COc1cc(OC2CCN(C)CC2)ccc1Nc1ncc2c(n1)n(C1CCCC1)c(=O)n2C
Test Target: HeLa
Reading: 1340
//
Molecule: Cc1cc(N2CCOCC2)ccc1Nc1nc(NC2CCCCC2)c2nc[nH]c2n1
Test Target: HeLa
Reading: 282

1. CCc1cccc(CC)c1NC(=O)c1nn(C)c2c1CCc1cnc(Nc3ccc(C(=O)NC4CCN(C)CC4)cc3OC(F)(F)F)nc1-2
2. COc1cc(N2CCC(O)CC2)ccc1Nc1nc(Nc2ccccc2S(=O)(=O)C(C)C)c2nc[nH]c2n1
Of the pair 1 and 2 , name the member with the lesser recorded IC50. Record your answer as the label of the chosen record. 1
(1: 433 nM, 2: 3420 nM)

====

Tested on: HCT-116
Assay: cells
Assay type: functional, cell-based
Conditions: Homo sapiens, HCT-116, 120 h
Endpoint Label: IC50 (nM)

Compound: c1nc2c(NC3CCCCC3)nc(Nc3ccc(N4CCOCC4)cc3)nc2[nH]1 [REVERSINE]
Output Unit: nM
IC50: 78.9

a. CCc1cccc(CC)c1NC(=O)c1nn(C)c2c1CCc1cnc(Nc3ccc(N4CCN(C)CC4)cc3OC)nc1-2
b. Cc1cc(N2CCOCC2)ccc1Nc1nc(NC2CCCCC2)c2nc[nH]c2n1
Quick check, higher IC50 between a and b ? Record your answer as the label of the chosen record. b
(b: 63 nM, a: 20.1 nM)

====

System: U2OS
Test: cells
Type: functional, cell-based
Conditions: Homo sapiens, 120 h
pIC50: −log10 of the molar value.
Endpoint Label: pIC50

I. CCc1cccc(CC)c1NC(=O)c1nn(C)c2c1CCc1cnc(Nc3ccc(C(=O)NC4CCN(C)CC4)cc3OC(F)(F)F)nc1-2
II. CCc1cccc(CC)c1NC(=O)c1nn(C)c2c1CCc1cnc(Nc3ccc(N4CCN(C)CC4)cc3OC)nc1-2
Quick check, higher pIC50 between I and II ? Record your answer as the label of the chosen record. II
(II: 7.69, I: 6.82)

Reference for the values: ChEMBL document CHEMBL5647693
